# Assay procedure: Pharmacokinetics of Compound 1 after single bolus IV injection in rats
# Format: in vivo, Sprague Dawley rats
# Condition label: Sprague Dawley, rat, plasma, iv, 10 mg/kg, 10 mg/kg single bolus IV, Rat 101
Property measured: clearance
The answer should read as a number with its unit following.

Kindly note the recorded clearance for "CN[C@@H]1[C@@H](O)[C@@H](O[C@@H]2[C@@H](O)[C@H](O[C@H]3OC(CNCCO)=CC[C@H]3N)[C@@H](N)C[C@H]2NC(=O)[C@@H](O)CCN)OC[C@]1(C)O" , which is 0.725 L/h/kg

----------
# Condition label: rat, in vivo, 10 mg/kg
Property measured: Body weight Day 12 (g)
Reply numerically in g, unit not repeated.

Kindly note the recorded Body weight Day 12 for NC[C@H]1O[C@H](O[C@H]2[C@H](O)[C@@H](O[C@H]3O[C@H](CO)[C@@H](O)[C@H](N)[C@H]3O)[C@H](N)C[C@@H]2N)[C@H](N)C[C@@H]1O [Tobramycin, tobramycin] , which is 330

----------
# Tested on: rat kidney
# Assay procedure: Rat nephrotoxicity model: kidney histopathology (H&E)
# Format: in vivo, Sprague-Dawley rats
# Condition label: rats, 14 d once-daily, 30 mg/kg
Property measured: Histopathology score (0 to 5 Scale): Dilation

# count of solved cases: 3
NCC[C@H](O)C(=O)N[C@@H]1C[C@H](N)[C@@H](O[C@H]2O[C@H](CN)[C@@H](O)[C@H](O)[C@H]2O)[C@H](O)[C@H]1O[C@H]1O[C@H](CO)[C@@H](O)[C@H](N)[C@H]1O
0 +/− 0
CN[C@@H]1[C@@H](O[C@H]2O[C@H](CO)[C@@H](N)[C@H](O)[C@H]2O)OC2C[C@@H](N)[C@@H](O[C@H]3[C@H](O)[C@@H](O)[C@H](N)C[C@@H]3N)OC2[C@@H]1O (stereo partly shown)
0 +/− 0
NC[C@@H]1O[C@H](O[C@H]2[C@@H](O)[C@H](O[C@@H]3[C@@H](O)[C@H](N)C[C@H](N)[C@H]3O[C@H]3O[C@H](CO)[C@@H](O)[C@H](O)[C@H]3N)O[C@@H]2CO)[C@H](N)[C@@H](O)[C@@H]1O
1 +/− 1

With those in mind, consider the next molecule.
Kindly note the recorded Histopathology score (0 to 5 Scale): Dilation for "NC[C@H]1O[C@H](O[C@H]2[C@H](O)[C@@H](O[C@H]3O[C@H](CO)[C@@H](O)[C@H](N)[C@H]3O)[C@H](N)C[C@@H]2N)[C@H](N)C[C@@H]1O" , which is 1.6 +/− 1.1

----------
# Condition label: rat, in vivo, 10 mg/kg
Property measured: Body weight Day 13 (g)
Reply numerically in g, unit not repeated.

Kindly note the recorded Body weight Day 13 for "NC[C@H]1O[C@H](O[C@H]2[C@H](O)[C@@H](O[C@H]3O[C@H](CO)[C@@H](O)[C@H](N)[C@H]3O)[C@H](N)C[C@@H]2N)[C@H](N)C[C@@H]1O" , which is 347

----------
# Assay procedure: Pharmacokinetics of Compound 1 after single bolus IV injection in mice
# Type: in vivo, CD-1 mice
# Condition label: male, CD-1, mouse, plasma, 10 mg/kg single bolus IV
# Procedure: Male CD-1 mice, Sprague Dawley rats, and beagle dogs were administered Compound 1 intravenously. Compound 1 was preformulated as a sterile isotonic solution of 10 mg/mL in PBS. […] Samples were centrifuged, and plasma was collected and transferred into a new tube and frozen at −80° C. until they were analyzed. Blood, urine, and kidney samples collected over 24 hours were analyzed for Compound 1 levels using LC-MS/MS. […]
Property measured: half-life
The answer should read as a number with its unit following.

Kindly note the recorded half-life for "CN[C@@H]1[C@@H](O)[C@@H](O[C@@H]2[C@@H](O)[C@H](O[C@H]3OC(CNCCO)=CC[C@H]3N)[C@@H](N)C[C@H]2NC(=O)[C@@H](O)CCN)OC[C@]1(C)O" , which is 1.4 h

Reference source: patent US20120208781A1
